Give primary growth inhibitory screen, cell viability, MRC-5 for every item shown.
test system: MRC-5 fibroblasts; test: MTT cytotoxicity assay on non-cancerous MRC-5 fibroblasts; format: cell-based; conditions: 2.5 µM, 72 h, MTT, mean±SD, untreated control about 100

Qu. So what does the record say about primary growth inhibitory screen, cell viability, MRC-5 for CC(=O)O[C@H]1CC[C@H]2[C@@H]3CCc4cc5oc(=O)c6cn(-c7ccccc7)nc6c5cc4[C@H]3CC[C@]12C [Compound 9a] ?
Ans. ≥ 100±8.1

Qu. Then Cc1ccc(-n2cc3c(=O)oc4cc5c(cc4c3n2)CCCC5)cc1 [Compound 19b] ?
Ans. ≥ 100±0

Qu. Then O=Cc1cn(-c2ccccc2)nc1-c1cc2c(cc1O)CCCC2 [Compound 17a] ?
Ans. ≥ 100±7.3

Qu. Then CC(=O)O[C@H]1CC[C@H]2[C@@H]3CCc4cc5oc(=O)c6cn(-c7ccc(C)cc7)nc6c5cc4[C@H]3CC[C@]12C [Compound 9b] ?
Ans. ≥ 100±4.2

Qu. Then Cc1ccc(-n2cc(C=O)c(-c3cc4c(cc3O)CCCC4)n2)cc1 [Compound 17b] ?
Ans. ≥ 100±14.5

Qu. Then CC(=O)O[C@H]1CC[C@H]2[C@@H]3CCc4cc(O)c(-c5nn(-c6ccc(C)cc6)cc5CO)cc4[C@H]3CC[C@]12C [Compound 10b] ?
Ans. 96.9±3.8

Qu. Then CC(=O)O[C@H]1CC[C@H]2[C@@H]3CCc4cc5oc(=O)c6cn(-c7ccc(Cl)cc7)nc6c5cc4[C@H]3CC[C@]12C [Compound 9c] ?
Ans. 89.5±8.7

Qu. Then CC(=O)c1cc2c(cc1O)CCCC2 [Compound 15, 3-Acetyl-5,6,7,8-tetrahydro-2-naphthol] ?
Ans. ≥ 100±3.7

Qu. Then CC(=O)O[C@H]1CC[C@H]2[C@@H]3CCc4cc(O)c(C(C)=O)cc4[C@H]3CC[C@]12C [Compound 4] ?
Ans. ≥ 100±6.6

Qu. Then O=c1oc2cc3c(cc2c2nn(-c4ccc(Cl)cc4)cc12)CCCC3 [Compound 19c] ?
Ans. ≥ 100±2.5

Qu. Then CC(=O)O[C@H]1CC[C@H]2[C@@H]3CCc4cc(O)c(-c5nn(-c6ccccc6)cc5CO)cc4[C@H]3CC[C@]12C [Compound 10a] ?
Ans. 93.6±1.7

Qu. Then OCc1cn(-c2ccccc2)nc1-c1cc2c(cc1O)CCCC2 [Compound 18a] ?
Ans. ≥ 100±0.1

Qu. Then C[C@]12CC[C@@H]3c4cc(-c5nn(-c6ccc(Cl)cc6)cc5CO)c(O)cc4CC[C@H]3[C@@H]1CC[C@@H]2O [Compound 11c] ?
Ans. ≥ 100±8.4

---

system: PC-3 cells; experiment: MTT cytotoxicity assay on PC-3 prostate cancer cells; type: cell-based; conditions: cisplatin applied for 24 h, 20-330 µM, mean ± SD, read-out: IC50 on PC-3 (positive control)
ASSAY METRIC: IC50

Qu. So what does the record say about IC50 for N.N.[Cl][Pt][Cl] [cisplatin, reference compound] ?
Ans. > 330 µM

---

Give primary growth inhibitory screen, cell viability, PC-3 for every item shown.
tested on: PC-3 cells; assay: MTT cytotoxicity assay on PC-3 prostate cancer cells; format: cell-based; conditions: 2.5 µM, 72 h, mean±SD, untreated control about 100
Lab note: jot the number down without any unit.

Qu. So what does the record say about primary growth inhibitory screen, cell viability, PC-3 for O=c1oc2cc3c(cc2c2nn(-c4ccc(Cl)cc4)cc12)CCCC3 [Compound 19c] ?
Ans. 79.1

Qu. Then C[C@]12CC[C@@H]3c4cc(-c5nn(-c6ccccc6)cc5C=O)c(O)cc4CC[C@H]3[C@@H]1CC[C@@H]2O ?
Ans. 54.9

Qu. Then CC(=O)O[C@H]1CC[C@H]2[C@@H]3CCc4cc5oc(=O)c6cn(-c7ccc(Cl)cc7)nc6c5cc4[C@H]3CC[C@]12C ?
Ans. 94.1

Qu. Then CC(=O)O[C@H]1CC[C@H]2[C@@H]3CCc4cc(O)c(-c5nn(-c6ccc(C)cc6)cc5C=O)cc4[C@H]3CC[C@]12C ?
Ans. 98.2

Qu. Then OCc1cn(-c2ccccc2)nc1-c1cc2c(cc1O)CCCC2 [Compound 18a] ?
Ans. 91.5

Qu. Then O=c1oc2cc3c(cc2c2nn(-c4ccccc4)cc12)CCCC3 [Compound 19a] ?
Ans. 95.4

---

ASSAY METRIC: melting point

Qu. So what does the record say about melting point for Cc1ccc(-n2cc(C=O)c(-c3cc4c(cc3O)CC[C@@H]3[C@@H]4CC[C@]4(C)[C@@H](O)CC[C@@H]34)n2)cc1 [Compound 8b] ?
Ans. > 190 °C (dec.)

Qu. Then CC(=O)c1cc2c(cc1O)CC[C@@H]1[C@@H]2CC[C@]2(C)[C@@H](O)CC[C@@H]12 [Compound 5] ?
Ans. 189 to 191 °C

Qu. Then CC(=O)O[C@H]1CC[C@H]2[C@@H]3CCc4cc5oc(=O)c6cn(-c7ccc(C)cc7)nc6c5cc4[C@H]3CC[C@]12C [Compound 9b] ?
Ans. 264 to 266 °C

Qu. Then CC(=O)c1cc2c(cc1O)CCCC2 [Compound 15, 3-Acetyl-5,6,7,8-tetrahydro-2-naphthol] ?
Ans. 70 to 72 °C

Qu. Then OCc1cn(-c2ccccc2)nc1-c1cc2c(cc1O)CCCC2 [Compound 18a] ?
Ans. 135 to 137 °C

---

Test system: MCF-7 cells
Experiment: MTT cytotoxicity assay on MCF-7 cells
Type: cell-based
Details: 2.5 µM, 72 h, mean±SD, untreated control about 100
Description: Cytotoxicity screens were performed to assess the in vitro anticancer activity of the synthesized A-ring-linked 2-pyrazoles of estradiol, the pyrazolocoumarin-estradiol hybrids, and their structurally simplified non-steroidal analogs on various cancerous cell lines such as MCF-7, PC-3, DU145, and HeLa and on non-cancerous MRC-5 fibroblasts. The 2-acetyl-phenol starting materials (4, 5, and 15) were also included for comparison. All compounds were applied in 2.5 µM concentration for 72 h. […]
Give primary growth inhibitory screen, cell viability, MCF-7 for every item shown.
Lab note: jot the number down without any unit.

Qu. So what does the record say about primary growth inhibitory screen, cell viability, MCF-7 for CC(=O)O[C@H]1CC[C@H]2[C@@H]3CCc4cc(O)c(-c5nn(-c6ccc(Cl)cc6)cc5CO)cc4[C@H]3CC[C@]12C [Compound 10c] ?
Ans. 63.2

Qu. Then CC(=O)O[C@H]1CC[C@H]2[C@@H]3CCc4cc(O)c(-c5nn(-c6ccc(C)cc6)cc5CO)cc4[C@H]3CC[C@]12C [Compound 10b] ?
Ans. 87.6

Qu. Then O=Cc1cn(-c2ccc(Cl)cc2)nc1-c1cc2c(cc1O)CCCC2 [Compound 17c] ?
Ans. 77.5

---

Give melting point for every item shown.

Qu. So what does the record say about melting point for CC(=O)O[C@H]1CC[C@H]2[C@@H]3CCc4cc(O)c(-c5nn(-c6ccc(C)cc6)cc5CO)cc4[C@H]3CC[C@]12C [Compound 10b] ?
Ans. 254 to 256 °C

Qu. Then CC(=O)O[C@H]1CC[C@H]2[C@@H]3CCc4cc5oc(=O)c6cn(-c7ccccc7)nc6c5cc4[C@H]3CC[C@]12C [Compound 9a] ?
Ans. 198 to 200 °C

Qu. Then C[C@]12CC[C@@H]3c4cc(-c5nn(-c6ccccc6)cc5C=O)c(O)cc4CC[C@H]3[C@@H]1CC[C@@H]2O [Compound 8a] ?
Ans. 172 to 174 °C

Qu. Then Cc1ccc(-n2cc(CO)c(-c3cc4c(cc3O)CCCC4)n2)cc1 [Compound 18b] ?
Ans. 163 to 165 °C

Qu. Then CC(=O)O[C@H]1CC[C@H]2[C@@H]3CCc4cc(O)c(-c5nn(-c6ccccc6)cc5C=O)cc4[C@H]3CC[C@]12C [Compound 7a] ?
Ans. 230 to 232 °C

Qu. Then O=c1oc2cc3c(cc2c2nn(-c4ccccc4)cc12)CCCC3 [Compound 19a] ?
Ans. 221 to 223 °C

Qu. Then O=c1oc2cc3c(cc2c2nn(-c4ccc(Cl)cc4)cc12)CCCC3 [Compound 19c] ?
Ans. 291 to 293 °C

Qu. Then OCc1cn(-c2ccc(Cl)cc2)nc1-c1cc2c(cc1O)CCCC2 [Compound 18c] ?
Ans. 154 to 156 °C

---

Give melting point for every item shown.

Qu. So what does the record say about melting point for CC(=O)O[C@H]1CC[C@H]2[C@@H]3CCc4cc(O)c(C(C)=O)cc4[C@H]3CC[C@]12C [Compound 4] ?
Ans. 200 to 202 °C

Qu. Then O=Cc1cn(-c2ccccc2)nc1-c1cc2c(cc1O)CCCC2 [Compound 17a] ?
Ans. 137 to 138 °C

Qu. Then O=Cc1cn(-c2ccc(Cl)cc2)nc1-c1cc2c(cc1O)CCCC2 [Compound 17c] ?
Ans. 182 to 184 °C

Qu. Then C[C@]12CC[C@@H]3c4cc(-c5nn(-c6ccccc6)cc5CO)c(O)cc4CC[C@H]3[C@@H]1CC[C@@H]2O [Compound 11a] ?
Ans. 141 to 143 °C

Qu. Then CC(=O)O[C@H]1CC[C@H]2[C@@H]3CCc4cc(O)c(-c5nn(-c6ccc(Cl)cc6)cc5C=O)cc4[C@H]3CC[C@]12C [Compound 7c] ?
Ans. 268 to 270 °C

Qu. Then Cc1ccc(-n2cc(C=O)c(-c3cc4c(cc3O)CCCC4)n2)cc1 [Compound 17b] ?
Ans. 151 to 153 °C

Qu. Then CC(=O)O[C@H]1CC[C@H]2[C@@H]3CCc4cc(O)c(-c5nn(-c6ccc(C)cc6)cc5C=O)cc4[C@H]3CC[C@]12C [Compound 7b] ?
Ans. 229 to 231 °C
